Tested on: Plasmodium falciparum
Assay: GSK_TCMDC: Inhibition of Plasmodium falciparum Dd2 in whole red blood cells, using parasite LDH activity as an index of growth. Test compounds present at 2uM
Assay type: functional
Value type: Inhibition (%)
Numbers only here, please. The scale is %.

The examples below pair each entry with its known result.
>>> readout_value("COc1ccc(CCN(C)CCOc2ccc(NC(=O)c3cccc4c(=O)c5cc(SC)ccc5[nH]c34)cc2)cc1OC")
82
>>> readout_value("Fc1cccc(COc2ccc(Nc3ncnc4sc(C#CCNC5CCCC5)cc34)cc2Cl)c1")
78
>>> readout_value("COc1ccc2nccc([C@@H](O)CN3CCC(NCc4ccc5sc(=O)[nH]c5c4)CC3)c2c1.O=C(O)C(=O)O")
0
>>> readout_value("CCOc1cc(Cc2cnc(N)nc2N)cc(OC)c1OC")
0
>>> readout_value("CCc1ccc(CN2CCC(CNC(=O)c3cc(-c4ccccc4F)cs3)C2)cc1.O=C(O)C(F)(F)F (stereo not given)")
3
>>> readout_value("Br.COc1cc(CCCON2C(=N)N=C(N)NC2(C)C)cc(OC)c1OC")
94
>>> readout_value("Oc1ccc(Nc2nc(NCc3ccco3)c3ccccc3n2)cc1")
78
>>> readout_value("CCCCCCCCc1c(C)nc(C)c(I)c1O")
77

We now examine a further molecule.
### Prompt Consider the molecule Cc1ccc(-c2ccn(Cc3ccc(OCc4ccccc4)cc3)n2)cn1.Cc1ccc(-c2ccnn2Cc2ccc(OCc3ccccc3)cc2)cn1 and give its recorded Inhibition.
### Response 92

* * *

Reported Inhibition by item:
Test system: Plasmodium falciparum
Experiment: GSK_TCMDC: Inhibition of Plasmodium falciparum Dd2 in whole red blood cells, using parasite LDH activity as an index of growth. Test compounds present at 2uM
Assay type: functional
Numbers only here, please. The scale is %.

>>> readout_value("CC(CN1CCN(C)CC1)C(=O)Nc1ccc(-c2cccc(-c3nc4ccccc4[nH]3)c2)cc1 (centres undefined)")
81
>>> readout_value("NCc1ccc(CNCc2cccc(-c3ccc(-c4nc5cc(C(F)(F)F)ccc5[nH]4)cc3)c2)cc1.O=C(O)C(F)(F)F")
90
>>> readout_value("O=C(CCC1CCCC1)N(Cc1ccc(-c2ccc(CNCCc3ccccn3)cc2)cc1)CC1CCCCN1.O=C(O)C(F)(F)F (centres undefined)")
69

### Prompt Consider the compound Cc1cccc2nc(-c3cccc(-c4cccc(NC(=O)COc5ccccc5C(N)=O)c4)c3)[nH]c12 and give its recorded Inhibition.
### Response 88

* * *

Tested on: Plasmodium falciparum
Assay: GSK_TCMDC: Inhibition of Plasmodium falciparum Dd2 in whole red blood cells, using parasite LDH activity as an index of growth. Test compounds present at 2uM
Assay type: functional
Value type: Inhibition

### Prompt Consider the compound CC(C)(C)NCCN(Cc1ccc(-c2ccc(C(F)(F)F)cc2)cc1)C(=O)Cn1c(CCc2cccc(F)c2F)nc(=O)c2c1CCC2.O=C(O)C(O)C(O)C(=O)O and give its recorded Inhibition.
### Response 48%

### Prompt Consider the compound Cc1cc(C(F)(F)F)n2nc(C(=O)N(C)Cc3cncn3Cc3ccc(F)cc3)cc2n1 and give its recorded Inhibition.
### Response 96%

### Prompt Consider the compound O=C(N[C@@H](Cc1ccccc1)C(=O)NCc1cccc2ccccc12)c1ccc(O)c(-c2ccc(Cl)c(Cl)c2)c1 and give its recorded Inhibition.
### Response 97%

### Prompt Consider the compound O=C(C=Cc1ccc(Cl)c(Cl)c1)NCCCCCN1CCC(CCCNS(=O)(=O)c2cccc(C(F)(F)F)c2)CC1 and give its recorded Inhibition.
### Response 59%

### Prompt Consider the compound CC(=O)Nc1nc(C(=O)Nc2cccc(-c3cccc(-c4nc5cc(F)ccc5[nH]4)c3)c2)cs1 and give its recorded Inhibition.
### Response 100%

### Prompt Consider the compound CC(CN(C)C)C(=O)Nc1cccc(-c2ccc(-c3nc4cc(F)ccc4[nH]3)s2)c1 (stereo not drawn) and give its recorded Inhibition.
### Response 99%

### Prompt Consider the compound CS(=O)(=O)c1ccc(CCNCc2ccc(-c3ccc(CN(C(=O)c4ccco4)C4CCN(Cc5ccccc5)CC4)cc3)nc2)cc1.O=C(O)C(F)(F)F and give its recorded Inhibition.
### Response 38%

### Prompt Consider the compound Cc1cc(O)nc(NC(=N)NOCc2ccccc2)n1 and give its recorded Inhibition.
### Response 1%

* * *

Tested on: HepG2
Assay: GSK_TCMDC: Percent inhibition of human HepG2 cell line. Test compounds present at 10uM.
Assay type: functional
Value type: Inhibition (%)
Numbers only here, please. The scale is %.

The examples below pair each entry with its known result.
>>> readout_value("CCCCCc1ccc(N2C(N)=NC(N)=NC2(C)C)cc1.Cl")
59
>>> readout_value("Cl.N=C(NCCCCC1CCCCC1)c1cccc(C(=N)NCCCCC2CCCCC2)n1")
99
>>> readout_value("CS(=O)(=O)Nc1cccc(-c2cnc3[nH]cc(-c4ccc(C(=O)O)c(F)c4)c3c2)c1")
27
>>> readout_value("O=C(Nc1n[nH]c2nc(-c3ccco3)c(Br)cc12)c1ccc(CN2CCCC2)cc1.O=C(O)C(O)C(O)C(=O)O")
1
>>> readout_value("CCNc1cc(C)nc(Nc2ccc(NC(=O)c3ccccc3Br)cc2)n1")
46
>>> readout_value("CCNc1cc(C(=O)N[C@@H](Cc2ccccc2)[C@H](O)CN[C@@H]2CCc3ccccc32)cc(N2CCCCS2(=O)=O)c1")
0
>>> readout_value("CN(CCCCCN1CCC(NC(=O)Nc2ccc(C(F)(F)F)cc2)C1)C(=O)/C=C/c1ccc(Cl)c(Cl)c1 (centres undefined)")
28
>>> readout_value("Cc1ccc(NCC(=O)Nc2ccc(F)c(Cl)c2)cc1S(=O)(=O)N1CCOCC1")
2
>>> readout_value("CSC1=NC(=Nc2c(C)cccc2C)C2(CCCCC2)N1c1ccccc1Cl")
22
>>> readout_value("Cc1cc(CNC(c2ccccc2)C2CCC2)cc(C)c1O (centres undefined)")
78

### Prompt Consider the compound Cc1nn(-c2ccccc2)c2c1C(c1ccc(C(C)C)cc1)N1C(=N2)N(Cc2ccccc2)c2ccccc21 (centres undefined) and give its recorded Inhibition.
### Response 7

### Prompt Consider the compound Cc1cc(N(C)CCCN2CCCCC2)nc(Nc2ccc(Cl)cc2)n1.Cl and give its recorded Inhibition.
### Response 7

### Prompt Consider the compound Cc1cc(N(C)C)nc(Nc2ccc(NC(=O)c3ccc(Br)o3)cc2)n1 and give its recorded Inhibition.
### Response 1

### Prompt Consider the compound CC(C)(C)c1ccc(OCC(=O)NC2CCN(c3ccnc4cc(Cl)ccc34)C2)cc1.O=C(O)C(F)(F)F (centres undefined) and give its recorded Inhibition.
### Response 17

### Prompt Consider the compound CCN(CC)CCN(Cc1ccc(-c2ccc(C(F)(F)F)cc2)cc1)C(=O)c1ccc(-c2ccc(C#N)cc2)cc1 and give its recorded Inhibition.
### Response 38

### Prompt Consider the compound Brc1cc(Br)c2c(c1)C(NCCCNc1nc3ncccc3[nH]1)CCN2.O=C(O)CCC(=O)O (centres undefined) and give its recorded Inhibition.
### Response 5

### Prompt Consider the compound Cc1ccc(C(=O)Nc2ccc(C)c(OC3CCN(CCC(C)C)C3)c2)cc1.O=C(O)C(F)(F)F (centres undefined) and give its recorded Inhibition.
### Response 6

### Prompt Consider the compound COc1cc2ccccc2c(CNCCCCCCNCc2c(OC)c(OC)cc3ccccc23)c1OC.CS(=O)(=O)O and give its recorded Inhibition.
### Response 100

### Prompt Consider the compound O=C(O)C(F)(F)F.c1ccc2c(c1)CN(CC1CC1)CC1(CCN(Cc3c[nH]c4cnccc34)CC1)O2 and give its recorded Inhibition.
### Response 30

* * *

Tested on: Plasmodium falciparum
Assay: GSK_TCMDC: Inhibition of Plasmodium falciparum Dd2 in whole red blood cells, using parasite LDH activity as an index of growth. Test compounds present at 2uM
Type: functional
Value type: Inhibition (%)
Numbers only here, please. The scale is %.

The examples below pair each entry with its known result.
>>> readout_value("O=C(Nc1ccon1)c1cc(-c2cccnc2)nc2ccc(Cl)cc12")
76
>>> readout_value("Cc1cccc2nc(-c3ccc(-c4ccc(CNC(C)C)cc4)cc3)[nH]c12.O=C(O)C(F)(F)F")
62
>>> readout_value("O=C(Nc1ccc(OC2CCN(Cc3ccsc3)C2)c(Cl)c1)c1ccc(F)cc1.O=C(O)C(F)(F)F (centres undefined)")
73
>>> readout_value("Cl.c1ccc(-c2cc(NCCCCNc3cc(-c4ccccc4)nc4ccccc34)c3ccccc3n2)cc1")
97
>>> readout_value("COc1ccc(CN(C)Cc2ccc(NC(=O)c3cccc4c(=O)c5cccc(C)c5[nH]c34)cc2)cc1OC")
22

### Prompt Consider the compound N#Cc1cccc(NC(=O)C2=C(CCc3ccc4c(c3)OCO4)NC(=O)NC2c2cccc(C#N)c2)c1 (centres undefined) and give its recorded Inhibition.
### Response 47

### Prompt Consider the compound Cc1ccc(C2CCN(CCCCNC(=O)c3ccc(NC(=O)c4ccc(Cl)cc4)cc3)CC2)c(OCC(F)(F)F)c1 and give its recorded Inhibition.
### Response 84

### Prompt Consider the compound CCOP(=O)(OCC)c1ccc(OC)c(-c2ccc[nH]2)c1 and give its recorded Inhibition.
### Response 10

### Prompt Consider the compound N=C(N)CCN(Cc1ccc(Cl)cc1)c1ccc(Cl)cc1 and give its recorded Inhibition.
### Response 92
